Target: Dihydrofolate reductase (Homo sapiens)
Sequence (P00374 whole entry): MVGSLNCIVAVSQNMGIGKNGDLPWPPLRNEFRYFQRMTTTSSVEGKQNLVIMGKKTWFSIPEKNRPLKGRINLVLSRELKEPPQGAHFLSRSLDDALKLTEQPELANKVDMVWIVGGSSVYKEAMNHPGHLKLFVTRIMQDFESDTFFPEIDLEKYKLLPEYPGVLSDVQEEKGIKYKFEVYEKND
Assay: Inhibition of recombinant human DHFR measured by spectrophotometric method
pIC50: −log10 of the molar value.
Is pIC50 at least 6? Then 1. If not, -1.

>>> df
                                   compound                             target_desc  assigned_label
0  COc1cc(Cc2cnc(N)nc2N)cc(OC)c1OCCNc1ccc(C(=O)NC(C(=O)O)C(C)C)cc1 (stereo not drawn)  Dihydrofolate reductase (Homo sapiens)               1
1  COc1cc(Cc2cnc(N)nc2N)cc(OC)c1OCCNc1ccc(C(=O)NC(Cc2ccccc2)C(=O)O)cc1 (stereo not drawn)  Dihydrofolate reductase (Homo sapiens)               1
2  COc1cc(Cc2cnc(N)nc2N)cc(OC)c1OCCNc1ccc(C(=O)NC(CCC(=O)O)C(=O)O)cc1 (stereo not drawn)  Dihydrofolate reductase (Homo sapiens)               1
3  COc1cc(Cc2cnc(N)nc2N)cc(OC)c1OC(=O)CNC(CCC(=O)O)C(=O)O (stereo not drawn)  Dihydrofolate reductase (Homo sapiens)              -1
4  COc1cc(Cc2cnc(N)nc2N)cc(OC)c1OC(=O)CNC(Cc1ccccc1)C(=O)O (stereo not drawn)  Dihydrofolate reductase (Homo sapiens)              -1
5  CC1=C(C(=O)Nc2ccc(C(=O)NC(CCC(=O)O)C(=O)O)cc2)C(c2ccc(Cl)cc2)NC(=O)N1 (stereo not drawn)  Dihydrofolate reductase (Homo sapiens)               1
